- Tested on: osteoclast differentiation
- measurement-protocol: Inhibitory effects on osteoclast differentiation (co-culture of bone marrow cells with osteoblast, TRAP staining)
- Assay type: cell-based, mice
- cond: co-culture of bone marrow cells and osteoblast, 7 days, TRAP-positive osteoclasts versus controls
assay-readout: % inhibitory activity on osteoclastogenesis (%)

| compound | experimental-system | value |
| --- | --- | --- |
| CCN(CCN1CCOCC1)c1nc(-c2ccc(OCCCCCOc3ccc(C(=N)NO)cc3)cc2)c(C)s1 [Example 124] | osteoclast differentiation | 87.9 |
| CCc1sc(N2CCCCC2)nc1-c1ccc(OCCCCCOc2ccc(C(=N)NO)cc2)cc1 [Example 166] | osteoclast differentiation | 81.2 |
| CCc1sc(N(Cc2cccnc2)Cc2cccnc2)nc1-c1ccc(OCCCCCOc2ccc(C(=N)NO)cc2)cc1 [Example 137] | osteoclast differentiation | 62.7 |
| Cc1nc(-c2ccc(OCCCCOc3ccc(C(=N)NO)c(F)c3)cc2)c(C(C)C)s1 [Example 207] | osteoclast differentiation | 14.4 |
